Measured Plant response rating (scale of 0 to 100), Lambsquarters values are reported for all entries that follow.
# Tested on: lambsquarters (Chenopodium album)
# Experimental Details: Test D controlled growth environment herbicide test, pre- and postemergence
# Format: in vivo
# Study Conditions: Preemergence, 31 g ai/ha
Measured Parameter: Plant response rating (scale of 0 to 100), Lambsquarters

> print(dat)
                                   compound                    subject.of.test  readout.value
1  CCOC(=O)Oc1c(C)nn(C)c(=O)c1-c1c(C)sc2c(C)cc(C)cc12 [Compound 83]  lambsquarters (Chenopodium album)             95
2  CCC(=O)Oc1c(C)nn(C)c(=O)c1-c1c(C)sc2ccc(C)cc12 [Compound 42]  lambsquarters (Chenopodium album)             98
3  COc1nn(C)c(=O)c(-c2c(C)ccc3ccccc23)c1O [Compound 54]  lambsquarters (Chenopodium album)             65
4  CCOC(=O)Oc1c(C)nn(C)c(=O)c1-c1c(C)ccc2ccccc12 [Compound 73]  lambsquarters (Chenopodium album)             95
5  CC(=O)Oc1c(Br)nn(C)c(=O)c1-c1c(C)ccc2ccccc12 [Compound 129]  lambsquarters (Chenopodium album)            100

----------
# Test system: sandbur (southem sandbur, Cenchrus echinatus)
# Experimental Details: Test E greenhouse herbicide test, pre- and postemergence
# Assay type: in vivo
# Study Conditions: Postemergence, 31 g ai/ha; visual, scale 0 no effect to 100 complete control
Measured Parameter: Plant response rating, Sandbur

> print(dat)
                                  structure  readout.value
1  CCOC(=O)Oc1c(C)nn(C)c(=O)c1-c1c(C)sc2c(C)cc(C)cc12             40
2  CC(=O)Oc1c(C)nn(C)c(=O)c1-c1c(C)cc(C)c2ccccc12             50
3  CCC(=O)Oc1c(C)nn(C)c(=O)c1-c1c(C)sc2ccc(Cl)cc12             40
4  CCC(=O)Oc1c(C)nn(C)c(=O)c1-c1c(C)sc2ccc(C)cc12             35
5  COc1nn(C)c(=O)c(-c2c(C)sc3ccc(Cl)cc23)c1O             20

----------
# Test system: ryegrass, Italian (Italian ryegrass, Lolium multiflorum)
# Experimental Details: Test A greenhouse herbicide test, pre- and postemergence
# Format: in vivo
# Study Conditions: Postemergence, 500 g ai/ha; 0 to 100 scale, 0 is no effect, 100 is complete control
Measured Parameter: Ryegrass, Italian plant response rating

> print(dat)
                                   structure  readout.value
 1  CCOC(=O)Oc1c(C)nn(C)c(=O)c1-c1c(CC)ccc2ccccc12            100
 2      Cc1nn(C)c(=O)c(-c2c(C)sc3ccccc23)c1O            100
 3  Cc1cc(C)c2c(-c3c(OC(=O)C(C)(C)C)c(C)nn(C)c3=O)c(C)sc2c1              0
 4          Cc1ccc2ccccc2c1-c1c(O)cnn(C)c1=O            100
 5  CCOC(=O)Oc1c(C)nn(C)c(=O)c1-c1c(C)ccc2ccccc12            100
 6  C#CCOC(=O)Oc1c(C)nn(C)c(=O)c1-c1c(C)sc2ccc(C)cc12             80
 7  Cc1cc(C)c2sc(C)c(-c3c(OC(=O)C(C)(C)C)c(C)nn(C)c3=O)c2c1             60
 8       Cc1cc(C)c2ccccc2c1-c1c(O)cnn(C)c1=O             90
 9  CCC(=O)Oc1c(C)nn(C)c(=O)c1-c1c(C)sc2ccc(C)cc12            100
10  CCc1ccc2ccccc2c1-c1c(OC(=O)OC(C)C)c(C)nn(C)c1=O             60

----------
Examples of molecules with documented Plant response rating, Oat, Wild follow.
# Test system: oat, wild (wild oat, Avena fatua)
# Experimental Details: Test D controlled growth environment herbicide test, pre- and postemergence
# Format: in vivo
# Study Conditions: Preemergence, 125 g ai/ha; scale 0 to 100 (0 no effect, 100 complete control)
Measured Parameter: Plant response rating, Oat, Wild

> print(dat)
                                   structure                measured.parameter  readout.value
 1    Cc1ccc(-c2c(O)c(Br)nn(C)c2=O)c2ccccc12  Plant response rating, Oat, Wild             25
 2  Cc1nn(C)c(=O)c(-c2c(C)sc3ccc(Cl)cc23)c1O  Plant response rating, Oat, Wild             80
 3  Cc1cc(C)c2sc(C)c(-c3c(OC(=O)OCCCl)c(C)nn(C)c3=O)c2c1  Plant response rating, Oat, Wild             85
 4  CCOC(=O)Oc1c(C)nn(C)c(=O)c1-c1c(C)ccc2ccccc12  Plant response rating, Oat, Wild             85
 5  COC(=O)Oc1c(C)nn(C)c(=O)c1-c1c(C)sc2c(C)cc(C)cc12  Plant response rating, Oat, Wild             85
 6  CCOC(=O)Oc1c(C)nn(C)c(=O)c1-c1c(C)sc2ccc(C)cc12  Plant response rating, Oat, Wild             95
 7  Cc1cc(C)c2sc(C)c(-c3c(OC(=O)OC(C)C)c(C)nn(C)c3=O)c2c1  Plant response rating, Oat, Wild             80
 8  CC(=O)Oc1c(C)nn(C)c(=O)c1-c1ccc(F)c2ccccc12  Plant response rating, Oat, Wild             85
 9  CCOC(=O)Oc1c(C)nn(C)c(=O)c1-c1c(C)sc2c(C)cc(C)cc12  Plant response rating, Oat, Wild             90
10  CCC(=O)Oc1c(C)nn(C)c(=O)c1-c1c(C)sc2ccc(C)cc12  Plant response rating, Oat, Wild             95

----------
Here the recorded Plant response rating (scale of 0 to 100), Field Violet is given for each entry.
# Tested on: field violet (Viola arvensis)
# Experimental Details: Test D controlled growth environment herbicide test, pre- and postemergence
# Assay type: in vivo
# Study Conditions: Preemergence, 31 g ai/ha
Measured Parameter: Plant response rating (scale of 0 to 100), Field Violet

> print(dat)
                                  structure                subject.of.test  readout.value
1    Cc1ccc(-c2c(O)c(Br)nn(C)c2=O)c2ccccc12  field violet (Viola arvensis)              0
2  COC(=O)Oc1c(C)nn(C)c(=O)c1-c1c(C)sc2c(C)cc(C)cc12  field violet (Viola arvensis)             75
3  Cc1cc(C)c2sc(C)c(-c3c(OC(=O)OCCCl)c(C)nn(C)c3=O)c2c1  field violet (Viola arvensis)             65
4  CCOC(=O)Oc1c(C)nn(C)c(=O)c1-c1c(C)sc2ccc(C)cc12  field violet (Viola arvensis)            100
5  Cc1ccc2ccc(C)c(-c3c(O)c(C)nn(C)c3=O)c2c1  field violet (Viola arvensis)             95
6    COc1nn(C)c(=O)c(-c2c(C)ccc3ccccc23)c1O  field violet (Viola arvensis)             25
7  CC(=O)Oc1c(C)nn(C)c(=O)c1-c1c(C)sc2c(C)cc(C)cc12  field violet (Viola arvensis)             80

----------
# Test system: crabgrass, Brazilian (Brazilian crabgrass, Digitaria horizontalis)
# Experimental Details: Test E greenhouse herbicide test, pre- and postemergence
# Format: in vivo
# Study Conditions: 250 g ai/ha, Postemergence; scale 0 to 100 (0 no effect, 100 complete control)
Plant response rating, Crabgrass, Brazil values by entry
Measured Parameter: Plant response rating, Crabgrass, Brazil

> print(dat)
                                  structure  readout.value
1  Cc1cc(C)c2sc(C)c(-c3c(OC(=O)OCCCl)c(C)nn(C)c3=O)c2c1             50
2  COC(=O)Oc1c(C)nn(C)c(=O)c1-c1c(C)sc2c(C)cc(C)cc12             50
3  CSCC(=O)Oc1c(C)nn(C)c(=O)c1-c1cccc2ccccc12             60
4  COc1nn(C)c(=O)c(-c2c(C)sc3ccc(Cl)cc23)c1O             50
5  CCC(=O)Oc1c(C)nn(C)c(=O)c1-c1c(C)sc2ccc(C)cc12             50

----------
# Test system: morningglory (Ipomoea coccinea)
# Experimental Details: Test C greenhouse herbicide test, pre- and postemergence
# Type: in vivo
# Study Conditions: Postemergence, 125 g ai/ha; scale 0 to 100, 0 is no effect, 100 is complete control
Overview of recorded Plant response rating, Morningglory for various compounds
Measured Parameter: Plant response rating, Morningglory

> print(dat)
                                   structure  readout.value
 1          Cc1ccc2ccccc2c1-c1c(O)cnn(C)c1=O             50
 2  CCOC(=O)Oc1c(C)nn(C)c(=O)c1-c1c(C)sc2ccc(C)cc12            100
 3      Cc1nn(C)c(=O)c(-c2c(C)sc3ccccc23)c1O             95
 4  CC(=O)Oc1c(C)nn(C)c(=O)c1-c1c(C)oc2c(C)cc(C)cc12             60
 5       Cc1cc(C)c2ccccc2c1-c1c(O)cnn(C)c1=O             75
 6  Cc1sc2ccc(Cl)cc2c1-c1c(OS(C)(=O)=O)c(Cl)nn(C)c1=O            100
 7   Cc1ccc2sc(C)c(-c3c(O)c(C)nn(C)c3=O)c2c1            100
 8  COc1nn(C)c(=O)c(-c2c(C)sc3ccc(Cl)cc23)c1O            100
 9  CCCC(=O)Oc1c(C)nn(C)c(=O)c1-c1c(C)sc2c(C)cc(C)cc12            100
10  Cc1nn(C)c(=O)c(-c2ccc(F)c3ccccc23)c1OC(=O)CC(F)(F)F             98
